Test system: ATP;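 also: ATP exposure 15 min at 22 °C before imaging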
Experiment: switch fluorescence ratio, 500 uM ATP over buffer (Cy3 cluster intensity, sum of 5 cycles each) (fold (ratio)); higher = stronger signal-on switching upon ATP binding; sequences stand for … in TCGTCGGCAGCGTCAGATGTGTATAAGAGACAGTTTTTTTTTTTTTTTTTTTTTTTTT…TC
Conditions: aptamer strand: ATP DNA aptamer (quencher-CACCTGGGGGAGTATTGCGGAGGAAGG + anchor), 100 nM annealed; ATP concentration: 500 uM
Measured parameter: switch fluorescence ratio

Example cases with answers are listed next.
Query sequence: TTCTCGCTGG
switch fluorescence ratio: 1
//
Query sequence: AAAGGAGGAG
switch fluorescence ratio: 0.991

Can you give me switch fluorescence ratio for all of these, one by one?
1. AGACTTTTGG
2. GATTGAATCC
3. TGTTTATATC
4. GTTGGTGTTG
5. GGTCGCTTTT
6. CTAAAAGTGT

1: 0.987; 2: 1.01; 3: 0.986; 4: 0.998; 5: 0.995; 6: 0.989

Can you give me switch fluorescence ratio for all of these, one by one?
1. ATAATCGGCA
2. AAAAGTCAGT

1.01
0.988
